test system: OVCAR-8; assay: NCI tumour cell line growth inhibition, 48 h
Activity calls are given as the source filed them. Cut-off read from the data, not from the text of the source: active = GI50 up to about 1.1 µM and inactive = higher.
MEASUREMENT_NAME: GI50

Examples with answers:
With OVCAR-8 as the test system, CC(=O)CCC1(c2ccccc2)OC(=O)C(C#N)=C1c1ccccc1 (stereo not given) showed GI50 of > 100 µM (inactive)

Record for [O-][S+]1c2ccccc2N=C(c2ccc(Cl)cc2)CC1c1cccs1 (stereo not given) under target or system OVCAR-8: GI50 reported as 17.8 µM (inactive)

Noted GI50 for Cc1cc(O)c2c(c1)C(=O)c1c(c(O)cc(O)c1-c1c(O)cc(O)c3c1C(=O)c1cc(C)cc(O)c1C3=O)C2=O [SKYRIN] , tested on OVCAR-8: 8.26 µM (inactive)

GI50 on OVCAR-8 for "CC(C)Cc1c(C#N)c(C#N)c(N)n1Cc1ccccc1" is > 100 µM (inactive)

# evaluate next
For Cc1nn(C(=O)c2ccccc2O)c2c1C(c1ccccc1O)SC(=N)N2 (stereo not given) on OVCAR-8, measured GI50 was 2.82 µM (inactive)

---

system: SF-295; assay: NCI tumour cell line growth inhibition, 48 h
The source made the active and inactive calls. Rule as the data show it: active = GI50 up to about 1.1 µM and inactive = higher.
MEASUREMENT_NAME: GI50

Use these answered entries as a reference point.
Bench note, SF-295: "NS(=O)(=O)c1ccc(NC(=O)c2cccc3c(=O)c4ccccc4[nH]c23)cc1" , GI50 reads > 100 µM (inactive)

Fill in: SF-295 GI50 for CC(NC1=NCCO1)c1ccco1 (stereo unspecified) = > 100 µM (inactive)

With SF-295 as the test system, "Cc1ccccc1-n1c2nc(=O)n(C)c(=O)c-2nc2ccccc21" showed GI50 of 14.2 µM (inactive)

Form field GI50 for item CC1CC(C(=O)OC2OC(COC3OC(CO)C(OC4OC(C)C(O)C(O)C4O)C(O)C3O)C(O)C(O)C2O)C2CCC3(C)C(=CCC4(C)C3CCC3C(C)(CO)C(O)C(O)CC34C)C2C1C (stereo unspecified) on SF-295: 28.8 µM (inactive)

Short answer on SF-295 for Cc1cc(O)nc(NN2C(Cl)C(=O)C2c2ccc(Cl)cc2)n1 (stereo unspecified) , GI50: 8.61 µM (inactive)

Turning now to a further compound:
// GI50 (SF-295) for "O=C1CCCSC(=O)N1Cc1ccccc1" = > 100 µM (inactive)

---

test system: HL-60; assay: NCI tumour cell line growth inhibition, 48 h
Calls of active or inactive are those of the source. Rule as the data show it: active = GI50 up to about 1.1 µM and inactive = higher.
Reported GI50 values for a set of compounds

Here's what some known entries look like.
Query "CN1CCC2(CC1)/C(=N/C1CCCCC1)NC(=S)N2c1ccccc1" yields GI50 of > 100 µM (inactive)

Recorded result, O=c1cnn(C2OC(CO)C(O)C(F)C2O)c(=O)[nH]1 (stereo unspecified) , GI50: > 100 µM (inactive)

Continuing:
Reported GI50 ( "O=[N+]([O-])c1nccn1COCCI" ) = > 100 µM (inactive)

Record summary for COc1ccc(CC2NCCc3c2[nH]c2ccccc32)cc1 (stereo unspecified) : reported GI50 = 22.4 µM (inactive)

Entry "CSc1nc(NCc2ccccc2)c2cnn(COCCO)c2n1" — recorded GI50 = 42.7 µM (inactive)

The value of GI50 measured for the compound "O=C(C/C=C/c1ccccc1)c1ccccc1" turned out to be 16.1 µM (inactive)
